- measuredOn: mu receptor (Rattus norvegicus, UniProt P33535)
- Construct: The brain tissue, rat whole brain minus cerebellum for mu was homogenized; from tissue; host or cells: brain minus cerebellum of male Sprague Dawley rats, homogenate fraction
- Sequence (P33535 whole entry): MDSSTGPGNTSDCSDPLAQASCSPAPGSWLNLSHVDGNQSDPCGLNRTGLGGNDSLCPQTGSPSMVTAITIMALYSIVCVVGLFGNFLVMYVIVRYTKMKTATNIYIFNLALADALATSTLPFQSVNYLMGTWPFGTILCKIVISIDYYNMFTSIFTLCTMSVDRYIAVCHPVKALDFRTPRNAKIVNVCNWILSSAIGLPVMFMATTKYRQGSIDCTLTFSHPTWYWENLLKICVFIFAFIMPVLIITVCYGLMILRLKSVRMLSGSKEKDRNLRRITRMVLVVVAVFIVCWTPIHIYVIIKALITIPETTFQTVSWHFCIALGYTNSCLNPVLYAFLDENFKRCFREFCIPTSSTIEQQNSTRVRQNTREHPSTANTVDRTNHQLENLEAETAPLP
- assayProcedure: Naloxone [3H] opioid receptor binding assay (mu receptor)
- Design: species or system rat (male Sprague Dawley)
- protocolConditions: 20 min, pH 7.4; 100 nM test compound; [3H]naloxone 0.5 nM; mu receptor; read-out: % displacement at 100 nM
Structures can show the parent of a compound that is named as a salt.
Label scheme for inhibition at 0.1 µM: lower than 70% is 0 (no), 70% and above is 1 (yes).

COC1CCC(OC(=O)CCCC(=O)N[C@@H](CC2CCCCC2)CN2CC[C@](C)(c3cccc(O)c3)[C@H](C)C2)CC1 (stereo partly drawn): 1 (yes)
C[C@H]1CN(CCN(C(=O)CCC(=O)O)c2ccccc2)CC[C@@]1(C)c1cccc(O)c1 (relative stereo) [Example 19, monohydrate]: 1 (yes)
CCNC(=O)N[C@H](Cc1ccccc1)CN1CC[C@](C)(c2cccc(O)c2)[C@H](C)C1 [Example 17, hydrochloride monohydrate]: 1 (yes)
CCCCCCCOC(=O)CCCC(=O)N[C@@H](CC1CCCCC1)CN1CC[C@@](C)(c2cccc(O)c2)[C@@H](C)C1: 0 (no)

From here, focus on the item given below.
**Query** Please check the record "CC(C)COC(=O)CCCC(=O)N[C@H](CC1CCCCC1)CN1CC[C@](C)(c2cccc(O)c2)[C@H](C)C1" and state if its inhibition at 0.1 µM is at or above 70%.
**Result** 0 (no)
